Tested on: mini panel of cancer cell lines
Assay: Growth inhibition across the mini panel of cancer cell lines
Format: cell-based, human
Settings: mini panel of cancer cell lines (Table 1)
readoutName: Cancer cell growth inhibition, assessment in words

compound	target	recordedResult
CC(C)C[C@H]1OC(=O)[C@H](C(C)C)NC(=O)[C@H](C)OC(=O)[C@@H](C(C)C)NC(=O)[C@@H](CC(C)C)OC(=O)[C@H](C(C)C)NC(=O)[C@H](C)OC(=O)[C@@H](C(C)C)NC(=O)[C@@H](CC2CCCCC2)OC(=O)[C@H](Cc2ccc(O)cc2)NC(=O)[C@H](C)OC(=O)[C@@H](C(C)C)NC1=O [Silstatin 8 (18b)]	mini panel of cancer cell lines	rescuing the activity
CC(C)C[C@H]1OC(=O)[C@H](C(C)C)NC(=O)[C@H](C)OC(=O)[C@@H](C(C)C)NC(=O)[C@@H](CC2CCCCC2)OC(=O)[C@H]([C@@H](C)O)NC(=O)[C@H](C)OC(=O)[C@@H](C(C)C)NC(=O)[C@@H](CC(C)C)OC(=O)[C@H](C(C)C)NC(=O)[C@H](C)OC(=O)[C@@H](C(C)C)NC1=O [Silstatin 7 (18a)]	mini panel of cancer cell lines	rescuing the activity
